- testSettings: 288.15 K; 101 kPa; Liquid
# label = Fulfilled if viscosity >= 60 mPa·s else Not fulfilled

# example entries with known answers
Query: Given the entry CCCCCCn1cc[n+](C)c1.F[B-](F)(F)F [1-hexyl-3-methylimidazolium tetrafluoroborate] , answer whether its viscosity meets or surpasses 60 mPa·s.
Response: Fulfilled

Query: Kindly determine if viscosity recorded for CCn1cc[n+](C)c1.F[B-](F)(F)F [1-ethyl-3-methylimidazolium tetrafluoroborate] is above or exactly 60 mPa·s.
Response: Not fulfilled

Query: # check: viscosity of CCO is greater than or equal to 60 mPa·s
Response: Not fulfilled

Query: Decide: viscosity of CCCCn1cc[n+](C)c1.F[B-](F)(F)F [1-butyl-3-methylimidazolium tetrafluoroborate] >= 60 mPa·s?
Response: Fulfilled

Continue with the next compound.
Query: Could you tell me if the measured viscosity of CCCCCCCC[n+]1ccn(C)c1.F[B-](F)(F)F [1-methyl-3-octylimidazolium tetrafluoroborate] reaches 60 mPa·s or more?
Response: Fulfilled
